- system_under_test: Homeodomain-interacting protein kinase 1 (Homo sapiens) (UniProt Q86Z02);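 also: values are mean percent inhibition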
- Sequence (Q86Z02 whole entry, looked up): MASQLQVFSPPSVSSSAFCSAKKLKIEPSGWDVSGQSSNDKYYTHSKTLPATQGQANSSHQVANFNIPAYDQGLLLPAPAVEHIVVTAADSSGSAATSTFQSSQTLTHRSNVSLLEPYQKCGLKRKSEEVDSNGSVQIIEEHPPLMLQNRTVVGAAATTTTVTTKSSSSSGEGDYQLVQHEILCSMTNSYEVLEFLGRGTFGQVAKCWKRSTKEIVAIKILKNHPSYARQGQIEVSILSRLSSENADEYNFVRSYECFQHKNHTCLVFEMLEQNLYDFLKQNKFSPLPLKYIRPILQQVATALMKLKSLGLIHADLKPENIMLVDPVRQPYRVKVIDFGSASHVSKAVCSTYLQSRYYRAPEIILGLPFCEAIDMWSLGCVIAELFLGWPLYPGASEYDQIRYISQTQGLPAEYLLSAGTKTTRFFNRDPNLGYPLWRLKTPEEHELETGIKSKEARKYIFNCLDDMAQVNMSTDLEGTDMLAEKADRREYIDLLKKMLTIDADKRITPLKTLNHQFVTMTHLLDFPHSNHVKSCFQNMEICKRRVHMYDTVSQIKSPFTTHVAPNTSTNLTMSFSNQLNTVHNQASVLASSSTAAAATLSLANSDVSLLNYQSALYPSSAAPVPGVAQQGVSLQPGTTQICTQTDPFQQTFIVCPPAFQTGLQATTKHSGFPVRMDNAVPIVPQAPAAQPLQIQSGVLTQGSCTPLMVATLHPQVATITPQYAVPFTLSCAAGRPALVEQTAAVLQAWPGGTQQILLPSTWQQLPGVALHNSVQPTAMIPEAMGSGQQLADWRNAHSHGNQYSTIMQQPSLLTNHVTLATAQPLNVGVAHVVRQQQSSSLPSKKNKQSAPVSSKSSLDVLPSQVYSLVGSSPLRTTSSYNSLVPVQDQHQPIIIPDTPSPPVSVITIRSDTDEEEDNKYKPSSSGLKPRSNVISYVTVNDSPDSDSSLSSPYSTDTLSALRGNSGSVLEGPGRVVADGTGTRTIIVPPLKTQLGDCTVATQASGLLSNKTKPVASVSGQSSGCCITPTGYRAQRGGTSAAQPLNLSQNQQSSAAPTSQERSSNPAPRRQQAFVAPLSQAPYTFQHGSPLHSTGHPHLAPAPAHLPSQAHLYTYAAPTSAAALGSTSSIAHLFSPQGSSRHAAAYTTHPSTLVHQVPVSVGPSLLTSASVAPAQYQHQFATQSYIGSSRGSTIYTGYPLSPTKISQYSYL
- experimental_conditions: at 1 µM
recorded_endpoint: inhibition

Guide cases for inhibition, answers given:
[[record]]
smiles_entry = "Cc1ccc(O)cc1Nc1ccnc2ccc(S(C)(=O)=O)cc12"
recorded_endpoint = "inhibition"
endpoint_result = "1.59%"

[[record]]
smiles_entry = "NS(=O)(=O)c1ccc(N/N=C2\\C(=O)Nc3ccc(Cl)cc32)cc1"
recorded_endpoint = "inhibition"
endpoint_result = "10.2%"

[[record]]
smiles_entry = "Nc1nccc(-c2c(-c3ccc(F)cc3)nn3cc(C(F)(F)F)ccc23)n1"
recorded_endpoint = "inhibition"
endpoint_result = "-1.23%"

[[record]]
smiles_entry = "Nc1nccc(C#Cc2cncnc2Nc2ccc(OCc3cccc(F)c3)c(Cl)c2)n1"
recorded_endpoint = "inhibition"
endpoint_result = "6.94%"

[[record]]
smiles_entry = "NS(=O)(=O)c1cccc(Nc2cc(-c3ccc(F)cc3)n[nH]2)c1"
recorded_endpoint = "inhibition"
endpoint_result = "7.35%"

[[record]]
smiles_entry = "CCn1c(-c2nonc2N)nc2ccc(F)cc21"
recorded_endpoint = "inhibition"
endpoint_result = "2.13%"

[[record]]
smiles_entry = "[O-][S+]1CCN(Cc2ccc(-c3ccc4ncnc(Nc5ccc(OCc6ccccc6)c(Cl)c5)c4c3)o2)CC1"
recorded_endpoint = "inhibition"
endpoint_result = "0.05%"

[[record]]
smiles_entry = "CN(C)C(=O)O[C@@H]1CN[C@@H](C#Cc2cc3ncnc(Nc4ccc(OCc5cccc(F)c5)c(Cl)c4)c3s2)C1"
recorded_endpoint = "inhibition"
endpoint_result = "-3.81%"


# per-item lookup of inhibition; items listed below
1. COc1cc(/C=N/Nc2ncnc3c2cnn3C(C)C)ccc1O
2. N#Cc1c(NC(=O)c2ccccc2F)sc2c1CCCC2
3. Cc1ccc(C(=O)NC2CC2)cc1-c1ccc2[nH]ncc2c1

Out:
1. 16.1%
2. -0.26%
3. 0.04%

----------
- system_under_test: Inhibitor of nuclear factor kappa-B kinase subunit beta (Homo sapiens) (UniProt O14920);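 also: reported as mean inhibition, from the GSK PKIS screening set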
- Sequence (O14920 whole entry): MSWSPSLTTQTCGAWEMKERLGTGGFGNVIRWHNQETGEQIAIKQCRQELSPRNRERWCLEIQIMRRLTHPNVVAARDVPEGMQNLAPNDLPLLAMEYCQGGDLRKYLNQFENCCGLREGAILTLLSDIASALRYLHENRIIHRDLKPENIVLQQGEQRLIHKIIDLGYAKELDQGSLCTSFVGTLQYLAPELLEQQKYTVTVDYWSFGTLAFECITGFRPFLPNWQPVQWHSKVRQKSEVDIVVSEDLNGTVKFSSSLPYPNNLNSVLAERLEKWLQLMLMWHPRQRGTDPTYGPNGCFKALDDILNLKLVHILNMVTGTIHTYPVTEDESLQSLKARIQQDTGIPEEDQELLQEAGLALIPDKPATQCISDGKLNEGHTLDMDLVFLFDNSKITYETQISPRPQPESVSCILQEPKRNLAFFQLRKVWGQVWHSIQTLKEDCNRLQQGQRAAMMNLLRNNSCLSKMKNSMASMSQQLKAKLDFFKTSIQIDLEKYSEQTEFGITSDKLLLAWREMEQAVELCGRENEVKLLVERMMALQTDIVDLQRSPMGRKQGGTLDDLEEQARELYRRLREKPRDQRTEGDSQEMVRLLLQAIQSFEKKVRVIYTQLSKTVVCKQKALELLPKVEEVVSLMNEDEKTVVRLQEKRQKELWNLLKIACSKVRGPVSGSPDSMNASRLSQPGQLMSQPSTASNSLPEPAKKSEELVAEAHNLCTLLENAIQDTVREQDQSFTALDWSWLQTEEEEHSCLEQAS
- experimental_conditions: at 1 µM
Would you mind telling me the reported inhibition of each entry?
Give bare numbers, in %.

[[record]]
smiles_entry = "Cc1cc(O)cc(C)c1/C=C/c1cncc(C(=O)N(C)C)c1"
recorded_endpoint = "inhibition"
endpoint_result = 2.23

[[record]]
smiles_entry = "NC(=O)c1sc(-n2cnc3ccccc32)cc1OCc1ccccc1Br"
recorded_endpoint = "inhibition"
endpoint_result = 5.66

[[record]]
smiles_entry = "[O-][S+]1CCN(Cc2ccc(-c3ccc4ncnc(Nc5ccc(OCc6ccccc6)c(Cl)c5)c4c3)o2)CC1"
recorded_endpoint = "inhibition"
endpoint_result = 1.96

[[record]]
smiles_entry = "NS(=O)(=O)c1ccc(Nc2cc(-c3cccc(O)c3)n[nH]2)cc1"
recorded_endpoint = "inhibition"
endpoint_result = 5.24

[[record]]
smiles_entry = "CS(=O)(=O)Nc1cccc(-c2ccc3c(NC(=O)C4CC4)n[nH]c3c2)c1"
recorded_endpoint = "inhibition"
endpoint_result = 3.62


In: Read the entry Cc1cc(Cl)cc2c1NC(=O)C2=NNc1ccc(S(N)(=O)=O)cc1 and write its reported inhibition.
Out: 7.33

----------
- system_under_test: Glycogen synthase kinase-3 beta (Homo sapiens);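 also: values are mean percent inhibition of GSK3B activity, from the GSK Published Kinase Inhibitor Set (PKIS) screening dataset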
- experimental_conditions: at 0.1 µM
recorded_endpoint: inhibition (%)
Numbers only, in %.

Guide cases for inhibition, answers given:
[[record]]
smiles_entry = "COC(=O)c1ccc2c(c1)C(=Cc1cc(Br)c(O)c(Br)c1)C(=O)N2"
recorded_endpoint = "inhibition"
unit_abbrev = "%"
endpoint_result = 9.77

[[record]]
smiles_entry = "COc1cccc(-n2nc(C)c3c(N/N=C(\\C)c4ccncc4)ncnc32)c1"
recorded_endpoint = "inhibition"
unit_abbrev = "%"
endpoint_result = 3.08

[[record]]
smiles_entry = "COC(=O)Nc1nc2cc(Oc3ccc(NC(=O)Nc4cccc(Br)c4)cc3)ccc2[nH]1"
recorded_endpoint = "inhibition"
unit_abbrev = "%"
endpoint_result = 1.01

[[record]]
smiles_entry = "Nc1nccc(-c2c(-c3ccc(F)cc3)nn3cc(C(F)(F)F)ccc23)n1"
recorded_endpoint = "inhibition"
unit_abbrev = "%"
endpoint_result = -1.01


--- query ---
In: Given CCn1c(-c2nonc2N)nc2c(C#CC(C)(C)O)nc(OCCNC)cc21 , report its inhibition on Glycogen synthase kinase-3 beta (Homo sapiens).
Out: 8.59
